SUBJECT OF TEST: T1, ZIKV (prM80E) with a C-terminal myc-myc-hexahistidine tag (Zika virus, UniProt A0A024B7W1 104-694)
T1 construct: also called ZIKV (prM80E)-mmH; ZIKV-mmH
TEST: SPR, mAb captured, 37C, pH 6.0 chase
REPORTED PROPERTY: t½ (min)
Expressed in min, but write only the number.

Before answering, review these 4 worked examples.
| BINDER | t½ (min) |
| --- | --- |
| H4H25598P (antibody, V domains shown) VH: EVQLVESGGGLVQPGGSLRLSCAASGFTVSSNYMSWVRQAPGSGLEWVSVIYSGGITHYIGSVKGRFTISRHNSKNTLYLQMNSLRAEDTAMYYCARERYSGITGNPYGFDFWGQGTMVTVSS VL: DIQLTQSPSFLSASVGDRVTITCWASQDISSYLAWYQQKPGIAPKLLIYSASTLQSGVPSSFSGSGSGTEFTLTISSLQPEDFATYYCQQLNIYPFTFGPGTKVDIK | 0.9 |
| H4H25617P (antibody, V domains shown) VH: EVQLVESGGGLVQPGGSLRLSCSASGFTFTTYAMSWVRQAPGRGLEWVSSISGTGVSTYYADSVKGRFTISRDNSKNALYLQMNSLTAEDTAVYYCAKDSGTYHWGQGTLVTVSS VL: EIVLTQSPATLSLSPGERATLSCRASQSVDSYLAWYQQKPGQAPRLLIYDASNRATGIPARFSGSGSGTDFTLTISSLESEDFAVYYCQQRRNWPQFTFGGGTKVEIK | 2.34 |
| H4H25566P (antibody, V domains shown) VH: QVQLQESGPGLVKPSQTLSLTCTVSGGSISSGGYYWSWIRQHPGKGLEWIGYIYYSGSTYYNPSLKSRITISIDTSKNQFSLKLTSVTAADTAVYYCARGQQLLSFDYWGQGTLVTVSS VL: DIQMTQSPSSVSASVGDRVTITCRASQGISRWLAWYQLKPGKPPTPLIYAASSLQSGAPSRFSGRGSGTDFTLTISSLQPEDFATYYCQQANSFPYTFGQGTKLEIK | 0.04 |
| H4H25591P (antibody, V domains shown) VH: QVQLVESGGGVVQPGRSLRLSCAASGFTFSYSGMHWVRQAPGKGLEWVAVISYDGINKYYADSVKGRFTISRDNSKNTLYLQMNSLRPEDTAVYYCAKDRGGRFDPWGQGTLVTVSS VL: DIQMTQSPSSLSASVGDRVTITCRASQGISNYLAWYQQKPGKVPNLLIYGASTLHSGVPSRFSGSGSGTDFTLTISSLQPADVATYYCQKYNSAPLTFGGGTKVEIK | 0.85 |

### Prompt Identify measured t½ corresponding to H4H25640P (antibody, V domains shown) VH: QVQLVESGGGVVQPGRSLRLSCAASGFTFSYYGMHWVRQAPGKGLEWVAVILYDGSNKFYSDSVKGRFTISRDNSRNTLYLQMNSLRLEDTAVYYCAKDYGGRFDYWGQGTLVTVSS VL: EIVLTQSPGTLSLSSGERATLSCRASQSVSNKYLAWYQQKPGQVPRLLIYGASNRATGIPDRFSGSGSGTDFTLTINRLEPEDFAVFYCQQYGSTPSTFGQGTKVEIK
### Response 3.58

### Prompt Identify measured t½ corresponding to H4H25587P (antibody, V domains shown) VH: EVQLVESGGGLVQPGRSLTLSCAASGFTFDDYVMHWVRQAPGKGLEWVSGISWNSDTIDYADSVKGRFTISRDNAKNSLYLQMNSLRAEDTALYYCAKDRRSWYGGYFDYWGQGTLVTVSS VL: DIQMTQSPSSLSASVGDRVTITCRASQGISSYLAWYQQKPGKVPKLLIYAASTLQSGVPSRFSGSGSGTDFSLTISSLQPEDVATYYCQKYNSAPLTFGGGTKVEIK
### Response 0.77
